experimental target: HLA-A1101 (Homo sapiens, UniProt P04439, A114D/D185E/E176A/F33Y/L180Q/S129P/T187R)
assay protocol: cell-based
Residues, ends and D or L forms follow the SMILES beside them.

compound: CC(C)C[C@H](NC(=O)CN)C(=O)N[C@@H](CO)C(=O)N1CCC[C@H]1C(=O)N[C@H](C(=O)N[C@H](C(=O)N[C@@H](Cc1c[nH]c2ccccc12)C(=O)N[C@@H](CC(C)C)C(=O)N[C@@H](CO)C(=O)N[C@H](C(=O)O)C(C)C)C(C)C)[C@@H](C)O [Epitope P8]
IC50: > 15 µM
//
compound: CC(C)C[C@H](NC(=O)[C@H](Cc1ccccc1)NC(=O)[C@H](C)NC(=O)[C@H](CCCCN)NC(=O)[C@H](Cc1ccc(O)cc1)NC(=O)[C@@H](NC(=O)[C@@H]1CCCN1)[C@@H](C)O)C(=O)N[C@@H](CS)C(=O)N[C@@H](CCCCN)C(=O)O [Epitope P16] (H-PTYKAFLCK-OH; N-terminus and C-terminus assumed)
IC50: < 5 µM
//
compound: CC[C@H](C)[C@H](NC(=O)[C@H](CC(C)C)NC(=O)[C@@H](N)CCCCN)C(=O)NCC(=O)N[C@H](C(=O)N[C@@H](Cc1c[nH]cn1)C(=O)N[C@@H](CC(N)=O)C(=O)N[C@@H](CO)C(=O)N[C@H](C(=O)O)C(C)C)[C@@H](C)O [Epitope P33] (H-KLIGTHNSV-OH; N-terminus and C-terminus assumed)
IC50: > 15 µM
//
compound: CC[C@H](C)[C@H](NC(=O)[C@H](CO)NC(=O)[C@H](Cc1ccc(O)cc1)NC(=O)[C@@H](N)CC(C)C)C(=O)N[C@@H](CC(C)C)C(=O)N[C@@H](CO)C(=O)N1CCC[C@H]1C(=O)N[C@@H](Cc1ccccc1)C(=O)N[C@@H](CC(C)C)C(=O)O [Epitope P19] (H-LYSILSPFL-OH; N-terminus and C-terminus assumed)
IC50: > 15 µM
//
compound: CC(C)C[C@H](NC(=O)[C@H](CCCCN)NC(=O)[C@H](Cc1c[nH]cn1)NC(=O)[C@H](CCCNC(=N)N)NC(=O)[C@H](CS)NC(=O)CNC(=O)CNC(=O)[C@H](CC(C)C)NC(=O)[C@@H](N)C(C)C)C(=O)O [Epitope P36] (H-VLGGCRHKL-OH; N-terminus and C-terminus assumed)
IC50: > 15 µM
//
compound: CC(C)C[C@H](NC(=O)[C@H](CC(=O)O)NC(=O)[C@@H](NC(=O)[C@@H](NC(=O)[C@@H](N)CO)[C@@H](C)O)[C@@H](C)O)C(=O)N[C@@H](CCC(=O)O)C(=O)N[C@@H](C)C(=O)N[C@@H](Cc1ccc(O)cc1)C(=O)N[C@@H](Cc1ccccc1)C(=O)N[C@@H](CCCCN)C(=O)O [Epitope P18]
IC50: > 15 µM

---

experimental target: HLA-A1101 (Homo sapiens, UniProt P04439, A114D/D185E/E176A/F33Y/L180Q/S129P/T187R)
Construct: expressed in transfected cells; host or cells: HMy2.CIR
assay protocol: cell-based
Format: binding
applied conditions: HLA-A1101 HMy2.CIR cells; competitor peptide 15μM; 24 hours; flow cytometry; read-out: 15μM Inhibition (%)
Residues, ends and D or L forms follow the SMILES beside them.
# maps each entry to its inhibition at 15 µM
measurement kind: inhibition at 15 µM (%)

compound: CC[C@H](C)[C@H](NC(=O)[C@H](C)NC(=O)[C@@H](N)CO)C(=O)N[C@@H](CO)C(=O)N[C@@H](CO)C(=O)N[C@H](C(=O)N[C@@H](CO)C(=O)N[C@@H](CO)C(=O)N[C@@H](CCCCN)C(=O)O)[C@@H](C)CC [Epitope P39] (H-SAISSISSK-OH; N-terminus and C-terminus assumed)
observed value: 92.4

compound: CC(C)C[C@H](NC(=O)[C@H](Cc1ccc(O)cc1)NC(=O)[C@H](CCCCN)NC(=O)[C@@H](NC(=O)[C@@H](NC(=O)[C@H](CCCCN)NC(=O)[C@@H]1CCCN1C(=O)[C@H](Cc1ccc(O)cc1)NC(=O)[C@@H](N)Cc1ccccc1)C(C)C)[C@@H](C)O)C(=O)O [Epitope P25] (H-FYPKVTKYL-OH; N-terminus and C-terminus assumed)
observed value: 9.48

---

experimental target: HLA-A0201 (Homo sapiens, UniProt P04439, D140Y/D185E/D98H/E176V/E277Q/G131W/G231S/I119V/I121R/I166T/I218V/L300P/L318F/N151K/N90K/P208A/P217A/Q86G/Q94H/R138H/R169H/T345S)
Construct: expressed in transfected cells; host or cells: HMy2.CIR
assay protocol: cell-based
Type: binding
applied conditions: HLA-A0201 HMy2.CIR cells; competitor peptide 5μM; 24 hours; flow cytometry; read-out: 5μM Inhibition (%)
Residues, ends and D or L forms follow the SMILES beside them.
# maps each entry to its inhibition at 5 µM
measurement kind: inhibition at 5 µM (%)

compound: CC[C@H](C)[C@H](NC(=O)[C@H](Cc1c[nH]c2ccccc12)NC(=O)[C@@H](NC(=O)CNC(=O)[C@H](Cc1ccccc1)NC(=O)[C@H](CO)NC(=O)[C@@H](NC(=O)[C@@H](N)CC(C)C)C(C)C)C(C)C)C(=O)N[C@@H](CCCNC(=N)N)C(=O)O [Epitope P4]
units label: %
observed value: 7.9
--
compound: CC(C)C[C@H](NC(=O)[C@H](Cc1ccc(O)cc1)NC(=O)[C@H](CCC(=O)O)NC(=O)[C@H](CC(C)C)NC(=O)[C@@H](NC(=O)[C@@H](NC(=O)[C@@H](N)CCC(=O)O)[C@@H](C)O)C(C)C)C(=O)N[C@H](C(=O)N[C@@H](CO)C(=O)N[C@H](C(=O)O)C(C)C)C(C)C [Epitope P118] (H-ETVLEYLVSV-OH; N-terminus and C-terminus assumed)
units label: %
observed value: 7.95
--
compound: CC[C@H](C)[C@H](NC(=O)[C@H](CC(N)=O)NC(=O)[C@H](C)NC(=O)CNC(=O)[C@H](CO)NC(=O)[C@H](CCCNC(=N)N)NC(=O)[C@H](CO)NC(=O)[C@@H](N)CCCNC(=N)N)C(=O)N[C@@H](CC(C)C)C(=O)O [Epitope P90] (H-RSRSGANIL-OH; N-terminus and C-terminus assumed)
units label: %
observed value: 19.6
--
compound: CC[C@H](C)[C@H](N)C(=O)N[C@@H](CC(C)C)C(=O)N[C@@H](CO)C(=O)N[C@H](C(=O)N[C@@H](CC(C)C)C(=O)N1CCC[C@H]1C(=O)N[C@@H](CCC(=O)O)C(=O)N[C@H](C(=O)N[C@H](C(=O)N[C@H](C(=O)O)C(C)C)[C@@H](C)O)[C@@H](C)O)[C@@H](C)O [Epitope P96]
units label: %
observed value: 20.5
--
compound: CC(C)C[C@H](NC(=O)[C@@H](N)Cc1ccccc1)C(=O)N[C@@H](Cc1c[nH]c2ccccc12)C(=O)N[C@@H](CCC(=O)O)C(=O)N[C@@H](Cc1c[nH]c2ccccc12)C(=O)N[C@@H](C)C(=O)N[C@@H](CO)C(=O)N[C@H](C(=O)N[C@@H](CCCNC(=N)N)C(=O)O)C(C)C [Epitope P78] (H-FLWEWASVR-OH; N-terminus and C-terminus assumed)
units label: %
observed value: 79.7
--
compound: CC[C@H](C)[C@H](NC(=O)[C@H](CC(C)C)NC(=O)[C@@H](N)CCCCN)C(=O)NCC(=O)N[C@H](C(=O)N[C@@H](Cc1c[nH]cn1)C(=O)N[C@@H](CC(N)=O)C(=O)N[C@@H](CO)C(=O)N[C@H](C(=O)O)C(C)C)[C@@H](C)O [Epitope P33] (H-KLIGTHNSV-OH; N-terminus and C-terminus assumed)
units label: %
observed value: 37.9
--
compound: CSCC[C@H](NC(=O)[C@H](Cc1c[nH]c2ccccc12)NC(=O)[C@H](CCCNC(=N)N)NC(=O)[C@H](Cc1ccc(O)cc1)NC(=O)CNC(=O)[C@@H]1CCCN1C(=O)[C@@H](N)CS)C(=O)N[C@@H](CS)C(=O)N[C@@H](CC(C)C)C(=O)N[C@@H](CCCNC(=N)N)C(=O)O [Epitope P77] (H-CPGYRWMCLR-OH; N-terminus and C-terminus assumed)
units label: %
observed value: 0
--
compound: CC(C)C[C@H](NC(=O)[C@@H](N)Cc1ccccc1)C(=O)N1CCC[C@H]1C(=O)N[C@@H](CO)C(=O)N[C@@H](CC(=O)O)C(=O)N[C@@H](Cc1ccccc1)C(=O)N[C@@H](Cc1ccccc1)C(=O)N1CCC[C@H]1C(=O)N[C@@H](CO)C(=O)N[C@H](C(=O)O)C(C)C [Epitope P1]
units label: %
observed value: 94.6
--
compound: CC(C)C[C@H](NC(=O)[C@H](CC(=O)O)NC(=O)[C@@H](NC(=O)[C@@H](NC(=O)[C@@H](N)CO)[C@@H](C)O)[C@@H](C)O)C(=O)N[C@@H](CCC(=O)O)C(=O)N[C@@H](C)C(=O)N[C@@H](Cc1ccc(O)cc1)C(=O)N[C@@H](Cc1ccccc1)C(=O)N[C@@H](CCCCN)C(=O)O [Epitope P18]
units label: %
observed value: 9.4
--
compound: CC(C)C[C@H](NC(=O)[C@H](CCC(=O)O)NC(=O)[C@H](CCC(=O)O)NC(=O)[C@H](Cc1c[nH]c2ccccc12)NC(=O)[C@H](CC(=O)O)NC(=O)[C@H](CCCCN)NC(=O)[C@H](Cc1ccccc1)NC(=O)[C@H](CC(C)C)NC(=O)[C@@H](N)CS)C(=O)O [Epitope P12] (H-CLFKDWEEL-OH; N-terminus and C-terminus assumed)
units label: %
observed value: 64.3
--
compound: CC(C)C[C@H](NC(=O)[C@H](CCCCN)NC(=O)[C@H](Cc1c[nH]cn1)NC(=O)[C@H](CCCNC(=N)N)NC(=O)[C@H](CS)NC(=O)CNC(=O)CNC(=O)[C@H](CC(C)C)NC(=O)[C@@H](N)C(C)C)C(=O)O [Epitope P36] (H-VLGGCRHKL-OH; N-terminus and C-terminus assumed)
units label: %
observed value: 22.3
--
compound: CC(C)C[C@H](NC(=O)[C@H](CCC(=O)O)NC(=O)[C@H](CCCNC(=N)N)NC(=O)[C@H](CO)NC(=O)[C@H](C)N)C(=O)N[C@H](C(=O)N[C@H](C(=O)N[C@@H](CO)C(=O)N[C@@H](Cc1ccc(O)cc1)C(=O)O)C(C)C)C(C)C [Epitope P88] (H-ASRELVVSY-OH; N-terminus and C-terminus assumed)
units label: %
observed value: 47.9
